- Study System: PTPN3, P26045
- Sequence (P26045 505-587): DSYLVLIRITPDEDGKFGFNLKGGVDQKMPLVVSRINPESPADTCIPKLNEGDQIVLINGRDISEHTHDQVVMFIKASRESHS
- Assay Overview: holdup assay
- Design: key: below the threshold = too weak to quantify, mostly under pKd 3.1 to 4
- Experimental Conditions: plain residues with an end cap or a label only (N-terminal biotin on a linker: ado-ado)
Quantity Name: pKd
Give your answer as a number; write no unit.

Examples from the recorded data:
- Binder: "QGLAERISVL [PRKD2, Q9BZL6]"
  pKd: 4.72
- Binder: "TLPRKRMSSI [GPRC6A, Q5T6X5]"
  pKd: 4.11
- Binder: "QKNRKAQEDL [CES3, Q6UWW8]"
  pKd: 3.74
- Binder: "EVEEFPETSV [TRPV3, Q8NET8]"
  pKd: 4.95

Let us examine a further case.
If you can, please state the reported pKd value of YRLAQESGLV [ABCC6, O95255] .
3.87

# credit: paper PMC9482650
